Listing: normalized growth of selected compounds
Assay summary: chemical genetic growth profiling, strain panel (AID 1159580);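 also: tested at 20 µM; growth read once vehicle control cultures reached saturation at 30 °C; 1 = growth at the plate median or of vehicle wells; lower values mean less growth of the strain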
Experimental setup: S. cerevisiae deletion strains, growth OD, locus YDR195W, strain ref2
In all, about 5,500 compounds went through this assay and about 2,000 (36%) were called active. Not shown: some 18% with an inconclusive outcome. The list shows a part of the results.
Outcome measure: normalized growth

- CC(=O)O[C@@H]1C=C[C@@]2(C)C(C[C@@H](OC(C)=O)[C@@]3(C)C4=CC(=O)O[C@@H](c5ccoc5)[C@]4(C)CCC23)C1(C)C (stereo partly drawn): 0.975
- Cc1cc(=O)[nH]c(=S)[nH]1: 0.948
- CC1(C)CC2C1CC[C@]1(C)CCC3C(C(=O)O)CC(=O)O[C@@]32C1 (stereo partly drawn): 1.06
- CS(=O)(=O)c1ccc([C@@H](O)[C@@H](CO)NC(=O)C(Cl)Cl)cc1: 1.01
- COc1cc(C/C=C/c2ccccc2)c(OC)cc1O: 1
- Cc1c(C)c2c(c(C)c1O)CCC(C)(CCCC(C)CCCC(C)CCCC(C)C)O2 (stereo not drawn): 0.949
- CC(C)(C)NC[C@H](O)c1ccc(O)c(CO)c1: 1.02
- CC(=O)O[C@@H]1CC2C(C)(C)C(=O)C=C[C@]2(C)C2CC[C@]3(C)C(=CC(=O)O[C@H]3c3ccoc3)[C@@]21C (stereo partly drawn): 0.968
- CCOC(=O)[C@H](CCc1ccccc1)N[C@@H](C)C(=O)N1CCC[C@H]1C(=O)O: 0.981
- CC(C)=CC1C(C(=O)O)C1(C)C (stereo not drawn): 0.997
- O=C1NC(O)=NC1(c1ccccc1)c1ccccc1: 0.987
- CC12CCC3C(CC3(C)C)C(C)(CCC1=O)O2 (stereo not drawn): 0.934
- CCC(C)C(=O)OC1[C@@H]2CC3=C4CC(=O)O[C@@H](c5ccoc5)[C@]4(C)CCC3[C@@](C)(C2=O)[C@@H](CC(=O)OC)C1(C)C (stereo partly drawn): 0.987
- C=C1C[C@]23C[C@@]1(O)CC[C@H]2[C@@]12C=C[C@H](O)[C@@](C)(C(=O)O1)[C@H]2[C@@H]3C(=O)O: 1
- C[C@H]1c2cccc(O)c2C(O)=C2C(=O)[C@]3(O)C(O)=C(C(N)=O)C(=O)[C@@H](N(C)C)[C@@H]3[C@@H](O)[C@@H]21: 0.979
- CC(=O)O[C@H]1CC[C@@]2(C)C(C[C@@H](OC(C)=O)[C@@]3(C)C4=CC(=O)O[C@@H](c5ccoc5)[C@]4(C)CCC23)C1(C)C (stereo partly drawn): 1.02
- C=C1c2cccc(O)c2C(O)=C2C(=O)[C@]3(O)C(O)=C(C(N)=O)C(=O)[C@@H](N(C)C)[C@@H]3[C@@H](O)[C@H]12: 0.997
- CC(Cc1cccc(C(F)(F)F)c1)NCCOC(=O)c1ccccc1 (stereo not drawn): 1.01

These data points were gathered from PubChem BioAssay AID1159580.
